Field: protein stability index. Provide a value for each of the variants that follow.
B1: FAM189A2 (parent)
chain: PRCDLVDLGEGKICFCCEEFQPAK

variants of: B1; assay: protein stability index of a GFP-peptide fusion (GPS, HEK-293T) (PSI 1-6); higher = more stable; settings: c terminus: a fixed tail appended;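 also: lentivirally expressed fusions sorted by FACS into six bins by GFP to DsRed ratio, PSI derived from sequencing read proportions per bin multiplied by bin number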
Numbers only.

Reported protein stability index for PRCDLVDLGEGKECFCCEEFQPAK : what is it?
3.73

// each variant listed below needs its protein stability index
1. PRCDLVDLGEGKICCCCEEFQPAK
2. PRCLLVDLGEGKICFCCEEFQPAK
3. PRCALVDLGEGKICFCCEEFQPAK
4. PRCDLVDLGEGKICFCCEEFQPAH
5. PRCDLVDLGEGKICFCCETFQPAK

3.86
1.67
2.11
2.52
3.13

Give one value of protein stability index per listed variant.
1. PRFDLVDLGEGKICFCCEEFQPAK
2. PRCDLVDLPEGKICFCCEEFQPAK
3. PRCDLVDLGEGKICFCCEEFLPAK
4. PRCDLVDLGSGKICFCCEEFQPAK
5. PRCDLVDLGEGKICFCCEEFQPAG
6. PRCDLEDLGEGKICFCCEEFQPAK
7. PTCDLVDLGEGKICFCCEEFQPAK
8. PHCDLVDLGEGKICFCCEEFQPAK

1: 2.22; 2: 2.99; 3: 2.65; 4: 2.36; 5: 3.1; 6: 3.48; 7: 2.94; 8: 2.58

Look up protein stability index for the entries below, preserving their order.
1. PRCDLVDLGERKICFCCEEFQPAK
2. PRCQLVDLGEGKICFCCEEFQPAK
3. PRCDLVDLGEGKICFCCEEFQPFK
4. PRCDFVDLGEGKICFCCEEFQPAK
5. PRCDLVDLGEGKICFCCEEFQIAK

2.55
3.44
2.85
2.6
2.75

I'm hoping you can list protein stability index for every variant here, please.
1. PRCDLTDLGEGKICFCCEEFQPAK
2. PRCDVVDLGEGKICFCCEEFQPAK
3. PRCDLVDVGEGKICFCCEEFQPAK

2.98
3.02
2.97

All values here come from the supplement of paper PMC10567573.
